The reported numbers originate from patent US20230053688A1.

tested on: LMP1 expression in Kem I cells; assay: microbe, parasite or virus in culture; assay type: cell-based, EBV; settings: human gammaherpesvirus 4, 48 h, read-out: Replicate 1-LMP1 Fold Increase, Kem I cells, 1 uM, 48 hours, fold change in LMP1 transcript vs vehicle
Our labelling divides records by fold induction at 1 µM into ranges: b0 (below 6), b1 (6 to below 20), b2 (20 or more)

# molecule-smiles, assigned-category
records = [
    ("CCN(c1cc(-c2ccc(CN3CCOCC3)cc2)cc(C(=O)NCc2c(C)cc(C)[nH]c2=O)c1C)C1CCOCC1", "b0"),
    ("CC(C)c1cc(-c2n[nH]c(=O)n2-c2ccc3c(ccn3C)c2)c(O)cc1O", "b1"),
    ("COC1=CC(c2cc3ccccc3[nH]2)=N/C1=C\\c1[nH]c(C)cc1C", "b2"),
    ("COc1cccc2c1C(=O)c1c(O)c3c(c(O)c1C2=O)C[C@@](O)(C(=O)CO)C[C@@H]3O[C@H]1C[C@H](N)[C@H](O)[C@H](C)O1", "b2"),
    ("CCN(c1cc(C#CCN2CCOCC2)cc(C(=O)NCc2c(C)cc(C)[nH]c2=O)c1C)[C@H]1CC[C@H](N(C)CCOC)CC1", "b0"),
    ("Cn1c(=O)n(-c2ccc(C(C)(C)C#N)cc2)c2c3cc(-c4cnc5ccccc5c4)ccc3ncc21", "b1"),
    ("Nc1ncn([C@@H]2O[C@H](CO)[C@@H](O)[C@H]2O)c(=O)n1", "b0"),
    ("Nc1nc(Cl)nc2c1ncn2[C@H]1C[C@H](O)[C@@H](CO)O1", "b2"),
]

Form field 'band' for CC(C)NCCCn1c(Sc2cc3c(cc2I)OCO3)nc2c(N)ncnc21
b1
